Assay: Solubility of solid form
Assay type: physicochemical
Conditions: pH 2.33; pH of 2.33
readout_type: solubility

1) Cl.NS(=O)(=O)OC[C@@H]1C[C@@H](n2ccc3c(N[C@H]4CCc5ccccc54)ncnc32)C[C@@H]1O [Compound Form 9] : ~7800 µg/mL
